- Target or system: 3-oxo-5-alpha-steroid 4-dehydrogenase 2 (Homo sapiens, UniProt P31213)
- Sequence (P31213 whole entry): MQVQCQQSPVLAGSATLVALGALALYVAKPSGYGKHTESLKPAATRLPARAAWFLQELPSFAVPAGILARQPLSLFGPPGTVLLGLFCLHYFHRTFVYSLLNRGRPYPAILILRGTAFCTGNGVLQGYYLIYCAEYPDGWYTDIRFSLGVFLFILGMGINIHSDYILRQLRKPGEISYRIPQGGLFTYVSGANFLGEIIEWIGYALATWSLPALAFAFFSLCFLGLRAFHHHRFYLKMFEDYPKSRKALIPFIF
- Experiment notes: Apparent inhibition constant towards human Steroid 5-alpha-reductase type 2
- Protocol conditions: read-out: Ki app
Recorded endpoint: log10(Ki) (log10 of the value in nM)
Heads up: the numbers are on a log10 scale; they represent Ki in nM.

Use these answered entries as a reference point.
Compound	Target or system	log10(Ki)
CC12CCC(P(O)O)=CC1=CCc1cc(Cl)ccc12 (stereo unspecified)	3-oxo-5-alpha-steroid 4-dehydrogenase 2 (Homo sapiens, UniProt P31213)	3.20
COc1cccc2c1CC=C1C=C(P(O)O)CCC12C (stereo unspecified)	3-oxo-5-alpha-steroid 4-dehydrogenase 2 (Homo sapiens, UniProt P31213)	3.20
CC12CCC(C(=O)O)=CC1=CCc1cc(Cl)ccc12 (stereo unspecified)	3-oxo-5-alpha-steroid 4-dehydrogenase 2 (Homo sapiens, UniProt P31213)	2.41
CC(C)(C)NC(=O)[C@H]1CC[C@H]2[C@@H]3CC=C4C=C(C(=O)O)CC[C@]4(C)[C@H]3CC[C@]12C [EPRISTERIDE]	3-oxo-5-alpha-steroid 4-dehydrogenase 2 (Homo sapiens, UniProt P31213)	-0.70
CC(C)N(C(=O)[C@H]1CCC2C3CC=C4C=C(P(O)O)CC[C@]4(C)C3CC[C@@]21C)C(C)C (stereo partly specified)	3-oxo-5-alpha-steroid 4-dehydrogenase 2 (Homo sapiens, UniProt P31213)	-0.10

Read the next record carefully.
Asked: Write down the reported log10(Ki) of CC(C)(C)NC(=O)[C@H]1CC[C@H]2[C@@H]3CC[C@H]4NC(=O)C=C[C@]4(C)[C@H]3CC[C@]12C [FINASTERIDE] , test system: 3-oxo-5-alpha-steroid 4-dehydrogenase 2 (Homo sapiens, UniProt P31213).
Given back: 0.30
